Cited source for all entries: patent US20230134571A1

Entries and their measured IC80 (µg/ml) with constrains follow.
Target: HIV Env, isolate 6952.v1.c20 (HIV)
Experiment: cell-based or functional assay
Report the figure in µg/mL without appending any unit label.

{"BINDER": "ePGDM9 (antibody, V domains shown) VH: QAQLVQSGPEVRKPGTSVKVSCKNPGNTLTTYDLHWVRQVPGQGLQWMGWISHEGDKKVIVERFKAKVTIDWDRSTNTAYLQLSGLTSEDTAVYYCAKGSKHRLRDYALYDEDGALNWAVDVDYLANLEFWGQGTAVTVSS VL: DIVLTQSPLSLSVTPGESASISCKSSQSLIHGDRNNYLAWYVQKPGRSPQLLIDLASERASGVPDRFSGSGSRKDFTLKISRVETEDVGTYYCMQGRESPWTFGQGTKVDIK", "VAL": 0.21}
{"BINDER": "PGDM1400 (antibody, V domains shown) VH: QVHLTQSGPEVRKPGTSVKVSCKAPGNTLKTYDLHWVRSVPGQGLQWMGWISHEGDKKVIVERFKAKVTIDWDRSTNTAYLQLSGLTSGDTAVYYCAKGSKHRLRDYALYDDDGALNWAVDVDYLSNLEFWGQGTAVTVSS VL: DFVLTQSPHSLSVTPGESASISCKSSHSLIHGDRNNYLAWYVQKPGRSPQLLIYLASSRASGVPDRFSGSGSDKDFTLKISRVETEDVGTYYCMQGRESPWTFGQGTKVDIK", "VAL": 7.03}

Here is the next item to consider.
# get_value(readout='IC80 (µg/ml) with constrains', item= ePGDM5 (antibody, V domains shown) VH: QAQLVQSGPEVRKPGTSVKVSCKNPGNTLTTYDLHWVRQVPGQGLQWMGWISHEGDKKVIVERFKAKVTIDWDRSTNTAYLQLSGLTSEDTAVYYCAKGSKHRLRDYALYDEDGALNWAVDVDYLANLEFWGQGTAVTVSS VL: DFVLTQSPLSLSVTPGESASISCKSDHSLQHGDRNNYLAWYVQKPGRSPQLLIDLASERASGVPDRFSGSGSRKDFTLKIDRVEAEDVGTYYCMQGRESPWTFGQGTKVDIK ) 0.132
